Recorded pIC50 by entry
Study Target: Chk1 (Homo sapiens, UniProt O14757)
Construct: purchased Upstate Biotechnology
Measurement Notes: Chk1 kinase assay: incorporation of γ-33P ATP into immobilized myelin basic protein
Assay type: biochemical
Stated Conditions: Table 11; Chk1 only; read-out: Chk1 IC50
pIC50: −log10 of the molar value.
Measurement Name: pIC50

• CC(C)(C)OC(=O)N1CCC[C@@H](NC(=O)c2nc(-c3cccc(C(=O)N[C@H]4CCc5ccccc54)c3)cnc2N)C1 = 5.00 to 6.00
• CNC(=O)c1nc(-c2cccc(CNCc3cc(Br)ccc3F)c2)cnc1N = 6.00 to 7.30
• Nc1ncc(-c2cccc(CN[C@H]3CCc4ccccc43)c2)nc1C(=O)NCc1ccncc1 = 5.00 to 6.00
• CNC(=O)c1nc(-c2cccc(CN[C@H]3c4ccccc4C[C@H]3OC)c2)cnc1N = 6.00 to 7.30
• Nc1ncc(-c2cccc(C(=O)NCc3ccccc3)c2)nc1C(=O)N[C@H]1CCN(Cc2ccccn2)C1 = 6.00 to 7.30
• CNC(=O)c1nc(-c2cccc(CNc3ccc4ccccc4c3)c2)cnc1N = 6.00 to 7.30
• CNC(=O)c1cc(-c2cccc(CNC3CCc4c(F)cc(F)cc43)c2)cnc1N (stereo not drawn) = 6.00 to 7.30
• CN(C)c1ccc(CN2CC[C@H](NC(=O)c3nc(-c4cccc(C(=O)NCc5ccccc5)c4)cnc3N)C2)cc1 = 5.00 to 6.00
• N=C(N)c1nc(-c2cccc(C(=O)N[C@H]3CCc4ccccc43)c2)cnc1N = 5.00 to 6.00
• CC(C)(C)OC(=O)N1CCC[C@H](NC(=O)c2nc(-c3cccc(C(=O)N[C@@H]4c5ccccc5C[C@@H]4O)c3)cnc2N)C1 = > 7.30
• CNC(=O)c1nc(-c2cccc(-c3nc(-c4ccccc4)c[nH]3)c2)cnc1N = 6.00 to 7.30
• Nc1ncc(-c2cccc(CO)c2)nc1-c1nc(-c2ccccn2)n[nH]1 = 5.00 to 6.00

====

Study Target: Chk1 (Homo sapiens, UniProt O14757)
Construct: purchased Upstate Biotechnology
Measurement Notes: Chk1 kinase assay: incorporation of γ-33P ATP into immobilized myelin basic protein
Assay type: biochemical
Stated Conditions: read-out: Chk1 IC50
pIC50: −log10 of the molar value.
Measurement Name: pIC50

- CNC(=O)c1nc(-c2cccc(OCCN3CCCCC3)c2)cnc1N: 6.00 to 7.30
- CNC(=O)c1nc(-c2cccc(OCCN3CCC(O)C3)c2)cnc1N (centres unmarked): 5.00 to 6.00
- CNC(=O)c1nc(-c2cccc(C(=O)N[C@@H]3C[C@H]3c3ccccc3)c2)cnc1N: 6.00 to 7.30
- CNC(=O)c1nc(-c2cccc(C(=O)NCc3cccc(OC)c3OC)c2)cnc1N: 6.00 to 7.30
- CNC(=O)c1nc(-c2cccc(CNC3Cc4ccccc4C3)c2)cnc1N: > 7.30
- CNC(=O)c1nc(-c2cccc(C(=O)NCc3cc(C(F)(F)F)cc(C(F)(F)F)c3)c2)cnc1N: 6.00 to 7.30
- CNC(=O)c1nc(-c2cccc(C(=O)NCCc3cccs3)c2)cnc1N: 6.00 to 7.30
- CNC(=O)c1nc(-c2cccc(C(=O)NCC3CN(Cc4ccccc4)CCO3)c2)cnc1N (centres unmarked): 6.00 to 7.30
- CNC(=O)c1nc(-c2cccc(NC(=O)c3ccc(Cl)cc3)c2)cnc1N: 6.00 to 7.30
- CNC(=O)c1nc(-c2cccc(C(=O)NCc3ccc(-c4ccccc4)cc3)c2)cnc1N: > 7.30
- CNC(=O)c1nc(-c2cccc(C(=O)NCc3cc(F)ccc3F)c2)cnc1N: 6.00 to 7.30

====

Study Target: Chk1 (Homo sapiens)
Construct: purchased Upstate Biotechnology
Sequence (O14757 1-476): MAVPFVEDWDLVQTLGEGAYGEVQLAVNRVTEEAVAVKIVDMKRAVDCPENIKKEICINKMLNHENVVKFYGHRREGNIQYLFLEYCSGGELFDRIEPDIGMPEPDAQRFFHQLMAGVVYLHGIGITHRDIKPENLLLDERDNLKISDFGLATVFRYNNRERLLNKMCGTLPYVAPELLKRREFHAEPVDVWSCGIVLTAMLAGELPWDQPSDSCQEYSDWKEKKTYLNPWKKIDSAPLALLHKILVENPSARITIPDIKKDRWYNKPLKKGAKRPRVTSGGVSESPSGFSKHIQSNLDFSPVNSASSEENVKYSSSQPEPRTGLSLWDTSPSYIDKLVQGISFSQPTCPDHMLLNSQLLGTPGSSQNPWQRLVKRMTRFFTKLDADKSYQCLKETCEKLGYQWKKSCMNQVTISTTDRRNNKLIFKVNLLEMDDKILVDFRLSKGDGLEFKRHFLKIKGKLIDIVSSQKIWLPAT
Measurement Notes: Chk1 kinase assay: incorporation of γ-33P ATP into immobilized myelin basic protein
Assay type: biochemical
Stated Conditions: Table 11; Chk1 only; read-out: Chk1 IC50
Measurement Name: IC50

* CNC(=O)c1nc(-c2cccc(CN[C@H](C(=O)OC)c3ccccc3)c2)cnc1N | 1000 to 10000 nM
* Nc1nccc(-c2nc(-c3cccc(C(=O)NCc4ccccc4)c3)cnc2N)n1 | 1000 to 10000 nM
* CNC(=O)c1nc(-c2cccc(CNC3CCc4cc(Br)ccc43)c2)cnc1N (stereo not drawn) | 50 to 1000 nM
* NCCNC(=O)c1nc(-c2cccc(C(=O)NCc3ccccc3)c2)cnc1N | 50 to 1000 nM
* COC(=O)[C@@H](NC(=O)c1nc(-c2cccc(C(=O)NCc3ccccc3)c2)cnc1N)[C@@H](C)O | ≥ 10000 nM
* Nc1ncc(-c2cccc(CNC3CCc4ccccc43)c2)nc1C(=O)NC1CCCCC1 (stereo not drawn) | 1000 to 10000 nM

====

Study Target: Chk1 (Homo sapiens)
Construct: purchased Upstate Biotechnology
Measurement Notes: Chk1 kinase assay: incorporation of γ-33P ATP into immobilized myelin basic protein
Format: biochemical
Stated Conditions: read-out: Chk1 IC50
Recorded IC50 by entry
Measurement Name: IC50

* CNC(=O)c1nc(-c2cccc(CNCc3cccc(Oc4ccccc4)c3)c2)cnc1N | 50 to 1000 nM
* CNC(=O)c1nc(-c2cncc(C(=O)NCc3ccc4c(c3)OCCO4)c2)cnc1N | 50 to 1000 nM
* CNC(=O)c1nc(-c2cccc(CNCc3ccccc3)c2)cnc1N | 50 to 1000 nM
* CNC(=O)c1nc(-c2ccc(OC)c(OC)c2)cnc1N | 1000 to 10000 nM
* CNC(=O)c1nc(-c2cnc(N)c(C(=O)NC)n2)cnc1N | ≥ 10000 nM
* CNC(=O)c1nc(-c2noc(-c3ccco3)n2)cnc1N | ≥ 10000 nM
* CNC(=O)c1nc(-c2cccc(NC(=O)O[C@@H]3C[C@H](C)CC[C@H]3C(C)C)c2)cnc1N | ≥ 10000 nM
* CNC(=O)c1nc(-c2cccc(NC(=O)c3ccc(C)cc3)c2)cnc1N | 50 to 1000 nM
* CNC(=O)c1nc(-c2noc(-c3ccccc3)n2)cnc1N | ≥ 10000 nM
* CNC(=O)c1nc(-c2cccc(C(=O)NCc3ccc4ccccc4c3)c2)cnc1N | 50 to 1000 nM
* CNC(=O)c1nc(-c2cccc(C(=O)N3CCN(Cc4ccccc4)CC3)c2)cnc1N | 1000 to 10000 nM
* CNC(=O)c1nc(-c2cccc(C(=O)NCc3ccccc3N3CCCCC3)c2)cnc1N | 50 to 1000 nM
* NC(=O)c1nc(-c2ccc3ccccc3c2)cnc1N | ≥ 10000 nM
* CNC(=O)c1nc(-c2cccc(C(=O)NCc3ccc(Br)cc3F)c2)cnc1N | 50 to 1000 nM
* CNC(=O)c1nc(-c2ccncc2)cnc1N | 1000 to 10000 nM
* CNC(=O)c1nc(-c2cccc(NCCc3ccccc3)c2)cnc1N | 50 to 1000 nM
* CNC(=O)c1nc(-c2cccc(C(=O)N3Cc4ccccc4C3)c2)cnc1N | 1000 to 10000 nM
* CNC(=O)c1nc(-c2cccc(C(=O)NCc3ccc(-n4cccn4)cc3)c2)cnc1N | 50 to 1000 nM
* CNC(=O)c1nc(-c2ccc(S(C)(=O)=O)cc2)cnc1N | 1000 to 10000 nM
* CNC(=O)c1nc(-c2cccc(C(=O)N[C@@H]3CCN(Cc4c(Cl)cccc4Cl)C3)c2)cnc1N | 50 to 1000 nM
* COC(=O)c1cccc(-c2cnc(N)c(C(=O)NC3CC3)n2)c1 | ≥ 10000 nM
* CNC(=O)c1nc(-c2cccc(NC(=O)c3ccccc3)c2)cnc1N | 50 to 1000 nM
* CNC(=O)c1nc(-c2cccc(C(=O)NCc3cccc(OCCN4CCOCC4)c3)c2)cnc1N | 50 to 1000 nM
* CNC(=O)c1nc(-c2cncc(C(=O)NCc3c(F)cccc3F)c2)cnc1N | 50 to 1000 nM
* Nc1ncc(-c2cccc(C(=O)NCc3ccccc3)c2)nc1C(=O)NC1CC1 | 1000 to 10000 nM
* CNC(=O)c1nc(-c2cccc(C(=O)NCc3cccc(F)c3)c2)cnc1N | 50 to 1000 nM
* CNC(=O)c1nc(-c2cccc(C(=O)NCc3cccc(Oc4ccccc4)c3)c2)cnc1N | 50 to 1000 nM
* CNC(=O)c1nc(-c2cccc(C(=O)NCc3cccc(Cl)c3C)c2)cnc1N | 50 to 1000 nM
* CNC(=O)c1nc(-c2cccc(C(=O)Nc3ccc(C)cc3)c2)cnc1N | 1000 to 10000 nM
